Listing of entries alongside the reported MIC.
Tested on: Staphylococcus aureus
assay.name: Antibacterial activity against Staphylococcus aureus ATCC 29213 by CLSI method
Type: functional
Express it in µg/mL; write the number only.

Answered cases to consult:
compound: CCNC(=O)Nc1nc2cc(-c3ccn(C)c(=O)c3)cc(C3CCCO3)c2[nH]1 (racemic)
readout.units: µg/mL
readout.value: 0.75

compound: CCNC(=O)Nc1nc2cc(-c3cccnc3)c(F)c(-n3cccn3)c2[nH]1
readout.units: µg/mL
readout.value: 0.25

compound: CCNC(=O)Nc1nc2cc(-c3cc(C)n(Cc4ccccn4)c(=O)c3)cc(C3CCCO3)c2[nH]1 (racemic)
readout.units: µg/mL
readout.value: 0.125

compound: CCNC(=O)Nc1nc2cc(-c3ccc([C@@H](O)CC)nc3)c(F)c(-n3cccn3)c2[nH]1
readout.units: µg/mL
readout.value: 0.063

compound: CCNC(=O)Nc1nc2c(-n3cccn3)cc(-c3cccnc3)cc2[nH]1
readout.units: µg/mL
readout.value: 0.25

compound: CCNC(=O)Nc1nc2cc(-c3cnc(C(C)(C)O)nc3)cc([C@@H]3CCCO3)c2[nH]1
readout.units: µg/mL
readout.value: 1

compound: CCNC(=O)Nc1nc2cc(-c3ccc(C(C)O)nc3)c(F)c(-n3cccn3)c2[nH]1 (centres undefined)
readout.units: µg/mL
readout.value: 0.125

Could you tell me which MIC is on file for CCNC(=O)Nc1nc2cc(-c3ccc(C(O)CC)nc3)c(F)c(-n3cccn3)c2[nH]1 (centres undefined) ?
0.063

###

Test system: Staphylococcus aureus
assay.name: Antibacterial activity against Staphylococcus aureus ATCC 29213 by CLSI method
Type: functional
Response field label: string, one of yes (MIC strictly below 0.2 µg/mL) or no.

Illustrative cases are given below, each with its answer.
compound: CCNC(=O)Nc1nc2cc(-c3cnc(C(C)(C)O)nc3)cc([C@H]3CCCO3)c2[nH]1
label: yes

compound: CCNC(=O)Nc1nc2cc(-c3cccnc3)cc(C3CCCO3)c2[nH]1 (racemic)
label: no

compound: CCNC(=O)Nc1nc2cc(-c3cncnc3)cc(C3CCCO3)c2[nH]1 (racemic)
label: no

Consider now this further compound.
Please let me know if `NC(=O)Nc1nc2cc(-c3cncc(F)c3)cc(-c3ncccn3)c2[nH]1` shows MIC below 0.2 µg/mL.
no

###

Species on record: Rattus norvegicus
assay.name: Drug metabolism in rat assessed as reactive metabolites as rat liver protein binding per mg of protein at 100 uCi for 6 days measured on day 7
Type: ADME, organism-based
test.settings: in vivo, 144 h
measured.endpoint: Drug metabolism

Could you tell me which Drug metabolism is on file for `CCNC(=O)Nc1nc2cc(-c3cnc(C(C)(C)O)nc3)c(F)c([C@H]3CCCO3)c2[nH]1` ?
< 5 pmol

###

Tested on: Rattus norvegicus
assay.name: Dose normalized AUC in rat at 30 mg/kg, po
Assay type: ADME, organism-based
Set-up: dose 30 mg/kg, route oral
test.settings: in vivo
Listing of entries alongside the reported AUC/dose.
Express it in microg.hr/mL per mg/kg; write the number only.

molecule: CCNC(=O)Nc1nc2cc(-c3ccc(CN4CCOCC4)nc3)c(F)c(-n3cc(C)cn3)c2[nH]1
AUC/dose [microg.hr/mL per mg/kg]: 1.9
//
molecule: CCNC(=O)Nc1nc2cc(-c3ccc(C(C)(C)O)nc3)cc(C3CCCO3)c2[nH]1 (racemic)
AUC/dose [microg.hr/mL per mg/kg]: 2.6
//
molecule: CCNC(=O)Nc1nc2cc(-c3cnc(C(C)(C)O)nc3)cc(C3CCCO3)c2[nH]1 (racemic)
AUC/dose [microg.hr/mL per mg/kg]: 5.5
//
molecule: CCNC(=O)Nc1nc2cc(-c3ccc([C@@H](O)CC)nc3)c(F)c(-n3cccn3)c2[nH]1
AUC/dose [microg.hr/mL per mg/kg]: 8.4
//
molecule: CCNC(=O)Nc1nc2cc(-c3cccnc3)c(F)c(-n3cccn3)c2[nH]1
AUC/dose [microg.hr/mL per mg/kg]: 10.8
//
molecule: CCNC(=O)Nc1nc2c(-n3cccn3)cc(-c3cccnc3)cc2[nH]1
AUC/dose [microg.hr/mL per mg/kg]: 5.7
//
molecule: CCNC(=O)Nc1nc2cc(-c3cc(C)n(Cc4ccccn4)c(=O)c3)c(F)c(-n3cc(C)cn3)c2[nH]1
AUC/dose [microg.hr/mL per mg/kg]: 0.2
//
molecule: CCNC(=O)Nc1nc2cc(-c3cnc(C(C)(C)O)nc3)cc([C@H]3CCCO3)c2[nH]1
AUC/dose [microg.hr/mL per mg/kg]: 4.3
//
molecule: CCNC(=O)Nc1nc2cc(-c3ccc(C(O)CC)nc3)c(F)c(-n3cccn3)c2[nH]1 (stereo unspecified)
AUC/dose [microg.hr/mL per mg/kg]: 7.2
//
molecule: CCNC(=O)Nc1nc2cc(-c3cncnc3)cc(C3CCCO3)c2[nH]1 (racemic)
AUC/dose [microg.hr/mL per mg/kg]: 10.5

Please examine the following record next.
Could you tell me which AUC/dose is on file for `CCNC(=O)Nc1nc2cc(-c3ccc(CN4CCOCC4)nc3)c(F)c(-n3cccn3)c2[nH]1` ?
13.8

###

Tested on: Staphylococcus aureus
assay.name: Antibacterial activity against Staphylococcus aureus ATCC 29213 by CLSI method
Assay type: functional
Response field label: string, one of Yes (MIC strictly below 0.06 µg/mL) or No.

Illustrative cases are given below, each with its answer.
compound: CCNC(=O)Nc1nc2cc(-c3ccc(CN4CCOCC4)nc3)c(F)c(-n3cc(C)cn3)c2[nH]1
label: No
//
compound: CNCC(=O)Nc1nc2cc(-c3cncc(F)c3)cc(-c3ncccn3)c2[nH]1
label: No
//
compound: CCNC(=O)Nc1nc2cc(-c3ccc([C@H](O)CC)nc3)c(F)c(-n3cccn3)c2[nH]1
label: No
//
compound: CCNC(=O)Nc1nc2cc(-c3cnc(C(C)(C)O)nc3)cc(C3CCCO3)c2[nH]1 (racemic)
label: No
//
compound: CCNC(=O)Nc1nc2cc(-c3cncc(F)c3)cc(-c3ncccn3)c2[nH]1
label: Yes

Please let me know if `COCC(=O)Nc1nc2cc(-c3cncc(F)c3)cc(-c3ncccn3)c2[nH]1` shows MIC below 0.06 µg/mL.
No

###

Tested on: Staphylococcus aureus
assay.name: Antibacterial activity against Staphylococcus aureus ATCC 29213 by CLSI method
Type: functional
Response field label: string, one of Y (MIC strictly below 0.03 µg/mL) or N.

Illustrative cases are given below, each with its answer.
compound: CCNC(=O)Nc1nc2cc(-c3cnc(C(C)(C)O)nc3)cc(-c3ncccc3F)c2[nH]1
experimental.system: Staphylococcus aureus
label: N

compound: CCNC(=O)Nc1nc2cc(-c3ccc(C(C)(C)O)nc3)cc(C3CCCO3)c2[nH]1 (racemic)
experimental.system: Staphylococcus aureus
label: N

compound: CCOC(=O)Nc1nc2cc(-c3cncc(F)c3)cc(-c3ncccn3)c2[nH]1
experimental.system: Staphylococcus aureus
label: Y

compound: CCNC(=O)Nc1nc2cc(-c3cc(C)n(Cc4ccccn4)c(=O)c3)c(F)c(-n3cc(C)cn3)c2[nH]1
experimental.system: Staphylococcus aureus
label: Y

compound: CCNC(=O)Nc1nc2cc(-c3cnc(C(C)(C)O)nc3)c(F)c(C3CCCO3)c2[nH]1 (racemic)
experimental.system: Staphylococcus aureus
label: N

compound: CCNC(=O)Nc1nc2cc(-c3ccc(CN4CCOCC4)nc3)c(F)c(-n3cccn3)c2[nH]1
experimental.system: Staphylococcus aureus
label: N

compound: CCNC(=O)Nc1nc2cc(-c3cccnc3)cc(-c3ncccc3F)c2[nH]1
experimental.system: Staphylococcus aureus
label: N

compound: CCNC(=O)Nc1nc2cc(-c3cnc(C(C)(C)O)nc3)c(F)c([C@H]3CCCO3)c2[nH]1
experimental.system: Staphylococcus aureus
label: N

Consider now this further compound.
Please let me know if `CCNC(=O)Nc1nc2cc(-c3cnc(C(C)(C)O)nc3)c(F)c([C@@H]3CCCO3)c2[nH]1` shows MIC below 0.03 µg/mL.
N
